Exercise: for every item that follows, state its recorded K.
biological target: NAD(P)H dehydrogenase [quinone] 1 (Homo sapiens); assay: Prodrug activation assessed as NQO1 (unknown origin)-mediated RSSH release by measuring rate constant
Sequence (P15559 whole entry): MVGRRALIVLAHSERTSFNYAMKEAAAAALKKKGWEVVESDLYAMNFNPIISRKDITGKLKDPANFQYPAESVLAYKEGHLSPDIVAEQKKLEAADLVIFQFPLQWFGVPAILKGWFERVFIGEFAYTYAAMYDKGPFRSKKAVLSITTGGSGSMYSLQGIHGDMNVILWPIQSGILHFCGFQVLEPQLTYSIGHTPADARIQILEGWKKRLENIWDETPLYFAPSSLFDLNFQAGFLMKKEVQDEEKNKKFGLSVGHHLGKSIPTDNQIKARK
Answers are plain numbers, in min⁻¹.

Known results for compounds:
COC(=O)[C@H](NC(C)=O)C(C)(C)SSC(=O)N(C)CCN(C)C(=O)CC(C)(C)C1=C(C)C(=O)C(C)=C(C)C1=O; 0.17
COC(=O)[C@H](NC(C)=O)C(C)(C)SSCc1ccc(N(C)C(=O)CC(C)(C)C2=C(C)C(=O)C(C)=C(C)C2=O)cc1; 0.162
CN1CCN(C)C1=O; 0.212

Consider the record given below.
Supply measured K of `Cc1c(C)c2c(c(C)c1O)C(C)(C)CC(=O)O2` in your reply. 0.32
